Test: Caspase-3/7 induction in CHO-K1 cells by small molecules, qHTS assay (AID 1346980); note: nearly all actives have a fitted effect of over 15% in size
Conditions: CHO-K1 caspase-3/7 induction, Caspase-Glo luminescence, 17 h; series mostly up to 92.4 µM
Calls of active or inactive are those of the source. Calls come from the whole dose curve; as a rule, active = well fitted activation curve with a large enough effect in the repeat runs; inconclusive = weak or mixed curves; inactive = flat fitted curve, though single readings scatter.
Possible outcomes: true (active), false (inactive)

compound	className
COc1ccc(OC(=O)N(CC(=O)O)Cc2ccc(OCCc3nc(-c4ccccc4)oc3C)cc2)cc1	false
O=C(Nc1cccc2c(=O)cc(-c3nn[nH]n3)oc12)c1ccc(OCCCCc2ccccc2)cc1	false
Cc1ccc(Cl)c(Nc2ccccc2C(=O)O)c1Cl	false
COc1cc(Nc2c(C#N)cnc3cc(OCCCN4CCN(C)CC4)c(OC)cc23)c(Cl)cc1Cl	false
C=C1C[C@@]23CC[C@H]4[C@@](C)(CCC[C@@]4(C)C(=O)O[C@@H]4O[C@H](CO)[C@@H](O)[C@H](O)[C@H]4O)[C@@H]2CC[C@]1(O[C@@H]1O[C@H](CO)[C@@H](O)[C@H](O[C@@H]2O[C@H](CO)[C@@H](O)[C@H](O)[C@H]2O)[C@H]1O[C@@H]1O[C@H](CO)[C@@H](O)[C@H](O)[C@H]1O)C3	false
CN1C(C(=O)Nc2ccccn2)=C(O)c2sccc2S1(=O)=O	false
CCOC(=O)OC(C)OC(=O)[C@@H]1N2C(=O)[C@@H](NC(=O)[C@H](N)c3ccccc3)[C@H]2SC1(C)C (stereo partly specified)	false
C1C[C@@H]2[C@H]3CC[C@H](C3)[C@@H]2C1	false
O=Cc1c2ccccc2c(Cl)c2ccccc12	false
c1cc(N(CC2CO2)CC2CO2)ccc1Cc1ccc(N(CC2CO2)CC2CO2)cc1 (stereo unspecified)	false
CCCCCC#CC(=O)OC	false
CC1CC(C)C(=O)C1=O (stereo unspecified)	false
N#CCc1ccc(Cl)cc1Cl	false
CCOc1cccc(-n2cc(C(=O)N3CCN(c4cc(C(=O)O)c5ccccc5c4)CC3)nc2-c2ccc(C)cc2)c1	true
CC(C)(O)c1ccc(CNC(=O)c2cccnc2Oc2ccc3nonc3c2)cc1	false
CC1=C(Br)C(=O)C(Br)=C/C1=C(/c1ccccc1S(=O)(=O)O)c1cc(Br)c(O)c(Br)c1C	false
Cc1ccc2c(Br)cc(Br)c(O)c2n1	false
CCCC(=O)C(=O)O	false
Oc1c(I)cc(I)c2cccnc12	false
Cc1ccc(C(C)(C)O)cc1	false
C=C(C)CCCC(C)CCO (stereo unspecified)	false

---

Experiment: qHTS assay for small molecule activators of the heat shock response signaling pathway - cell viability counter screen (AID 743209); note: nearly all actives have a fitted effect of over 50% in size
Details: HSE-bla HeLa viability, CellTiter-Glo luminescence, 5 h; series mostly up to 62.6 µM
Records with an inconclusive call do not appear. Calls of active or inactive are those of the source. Calls come from the whole dose curve; as a rule, active = well fitted cell-killing curve with a large enough effect in the repeat runs; inconclusive = weak or mixed curves, or effect the other way; inactive = no such curve, though single readings can be large or run the other way.
Outcomes: active, inactive

In [3]: df
Out[3]:
                                    compound  classname
 0  CC(CN(C)C)C(C)(O)Cc1ccc(Cl)cc1 (centres undefined)   inactive
 1  CC(C)=CCC1C(=O)N(c2ccccc2)N(c2ccccc2)C1=O   inactive
 2                   CCCCCCCCCCCCCCN(CCO)CCO     active
 3                   CC/C=C1/OC(=O)c2ccccc21   inactive
 4                   c1ccc2c(c1)CCc1ccccc1N2   inactive
 5     Brc1cc(Br)c(Oc2cc(Br)c(Br)cc2Br)cc1Br   inactive
 6              CC(=O)c1ccc([N+](=O)[O-])cc1   inactive
 7  C[C@@H]1CC(=O)NN=C1c1ccc(NN=C(C#N)C#N)cc1   inactive
 8  COc1ccccc1N1CCN(CC(O)COc2cccc3ccccc23)CC1 (centres undefined)   inactive
 9                             Cc1ccc(CO)cc1   inactive
10  COC(=O)[C@H]1[C@H]2C[C@@H]3c4[nH]c5cc(OC)ccc5c4CCN3C[C@H]2C[C@@H](OC(=O)/C=C/c2ccc(O)c(OC)c2)[C@@H]1OC   inactive
11                       Cc1ccc(C(C)(C)O)cc1   inactive
12                                    C1COC1   inactive
13  CCn1cc(C(=O)O)c(=O)c2cc(F)c(N3CCNCC3)cc21   inactive

---

Assay: qHTS assay to identify small molecule agonists of the androgen receptor (AR) signaling pathway in the presence of an antagonist - cell viability counter screen (AID 1259379); note: nearly all actives have a fitted effect of over 25% in size
Conditions: MDA-kb2 viability, CellTiter-Fluor, 16 h; series mostly up to 92.4 µM
Inconclusive results are not listed. Calls of active or inactive are those of the source. Calls follow the shape of the dose curve; as a rule, active = well fitted cell-killing curve with a large enough effect in the repeat runs; inconclusive = weak or mixed curves, or effect the other way; inactive = flat fitted curve, though single readings scatter.
Labels: YES for active, NO for inactive

>>> df
                                   molecule  classname
0  CC1(C)[C@@H](OC(=O)CCC(=O)O)CC[C@]2(C)[C@H]3C(=O)C=C4[C@@H]5C[C@@](C)(C(=O)O)CC[C@]5(C)CC[C@@]4(C)[C@]3(C)CC[C@@H]12         NO
1  CC1=C(Br)C(=O)C(Br)=C/C1=C(/c1ccccc1S(=O)(=O)O)c1cc(Br)c(O)c(Br)c1C        YES
2  CC(CN(C)C)C(C)(O)Cc1ccc(Cl)cc1 (configuration not stated)         NO
3      C1C[C@@H]2[C@H]3CC[C@H](C3)[C@@H]2C1         NO
4         O=c1cc(-c2ccccc2)oc2cc(O)cc(O)c12        YES
5                        N#CCc1ccc(Cl)cc1Cl         NO
6           O=C1c2ccccc2C(=O)C1c1ccc(Br)cc1         NO

---

Assay: qHTS assay to test for compound auto fluorescence at 590 nm (red) in HEK293 cell free culture (AID 720683); note: % is set by controls: 0 for no effect and ±100 for the full control effect
Conditions: cell-free medium autofluorescence, Ex540/Em590 red; series mostly up to 91.3 µM
Activity calls are given as the source filed them. Calls come from the whole dose curve; as a rule, active = well fitted curve in the direction sought with a large enough effect in the repeat runs; inconclusive = weak or mixed curves; inactive = flat fitted curve, though single readings scatter.
measuredEndpoint: fluorescence, % of fluorescent control

                                    molecule               experimentalresult
 0  CN1CCCC(CC2c3ccccc3Sc3ccccc32)C1 (configuration not stated)  0.0507% [at 18.6 µM] (inactive)
 1                             C/C=C/C=C/C=O                         inactive
 2                       CCOC(=O)c1ccc(I)cc1                         inactive
 3                   C=Cc1ccc(S(=O)(=O)O)cc1                         inactive
 4                                  Cc1ccco1                         inactive
 5  CC(C)COCC(CN(Cc1ccccc1)c1ccccc1)N1CCCC1 (configuration not stated)                         inactive
 6                            CCC1(CO)COCOC1                         inactive
 7  CC(C)C[C@H](NC(=O)[C@H](CCc1ccccc1)NC(=O)CN1CCOCC1)C(=O)N[C@@H](Cc1ccccc1)C(=O)N[C@@H](CC(C)C)C(=O)[C@@]1(C)CO1                         inactive
 8  CCOC(=O)OC(C)OC(=O)[C@@H]1N2C(=O)[C@@H](NC(=O)[C@H](N)c3ccccc3)[C@H]2SC1(C)C (some centres not stated)  -0.265% [at 18.6 µM] (inactive)
 9                      Oc1cccc(Nc2ccccc2)c1                         inactive
10  CCOC(=O)C1=C(C)NC(C)=C(C(=O)OC)C1c1cccc(Cl)c1Cl (configuration not stated)                         inactive
11     C/C=C(/C(=C/C)c1ccc(O)cc1)c1ccc(O)cc1   0.121% [at 18.6 µM] (inactive)

---

Target: Aryl hydrocarbon receptor (Homo sapiens)
Experiment: qHTS assay to identify small molecule that activate the aryl hydrocarbon receptor (AhR) signaling pathway (AID 743085); note: nearly all actives have a fitted effect of over 15% in size; note: potency is the fitted concentration of half-maximal effect;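 for activation: HG2L7.5c1 human HepG2 liver cells with stably integrated DRE-driven firefly reporter; % is set by controls: 0 for no effect and ±100 for the full control effect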
Settings: HepG2 AhR-luc (HG2L7.5c1), luciferase, 24 h; series mostly up to 70.3 µM
Results filed as inconclusive are left out. The source made the active and inactive calls. Calls come from the whole dose curve; as a rule, active = well fitted activation curve with a large enough effect in the repeat runs; inconclusive = weak or mixed curves; inactive = no such curve, though single readings can be large or run the other way.

molecule	Potency
NC(=O)c1ccncc1	inactive
O=C(O)CCC(=O)C(=O)O	inactive
O=C1c2ccccc2C(=O)c2c(O)c(O)cc(O)c21	10.9 µM (active)
Cc1ccc(OC(=O)c2ccccc2O)cc1	inactive
C[C@@H]1CN(CCCn2c3ccccc3c3ccccc32)C[C@H](C)N1	26.6 µM (active)
CCCCCCCCCCC(=O)O	inactive
O=C(/C=C/c1ccc(O)c(O)c1)O[C@@H]1C[C@@](OC(=O)/C=C/c2ccc(O)c(O)c2)(C(=O)O)C[C@@H](O)[C@@H]1O	inactive
CC(C)(O)c1ccc(CNC(=O)c2cccnc2Oc2ccc3nonc3c2)cc1	inactive
CC(CO)CO	inactive
CC1(C)[C@@H](OC(=O)CCC(=O)O)CC[C@]2(C)[C@H]3C(=O)C=C4[C@@H]5C[C@@](C)(C(=O)O)CC[C@]5(C)CC[C@@]4(C)[C@]3(C)CC[C@@H]12	inactive
C=C(C)C(=O)OCCOCCOC(=O)C(=C)C	inactive
CC(C)C=O	inactive
Cc1ccccc1N=C(N)Nc1ccccc1C	inactive
COc1ccccc1N1CCN(CCCCNC(=O)c2ccc(-c3ccc(C(C)=O)cc3)cc2)CC1	inactive
CCCCCCCCN	inactive
O=C(OC(=O)c1ccccc1)c1ccccc1	inactive
CN1C[C@H](C(=O)N[C@]2(C)O[C@@]3(O)[C@@H]4CCCN4C(=O)[C@H](Cc4ccccc4)N3C2=O)C[C@@H]2c3cccc4[nH]cc(c34)C[C@H]21	inactive
FC(F)(F)c1ccccc1Cl	inactive
Cc1cccc(N(C)C(=S)Oc2ccc3c(c2)CCC3)c1	inactive
C=CC(=O)[O-].C=CC(=O)[O-].[Zn+2]	inactive
C[C@]12CC[C@@H]3c4ccc(O)cc4CC[C@H]3[C@@H]1CC[C@@H]2OC(=O)CCC1CCCC1	inactive
O=C(/C=C/c1ccccc1)OCCc1ccccc1	inactive
O=C=Nc1ccc(Cl)c(Cl)c1	47.8 µM (active)
CN1C(C(=O)Nc2ccccn2)=C(O)c2sccc2S1(=O)=O	inactive
O[C@@H]1CO[C@H]2[C@@H]1OC[C@@H]2O	inactive
CCCCCCCCOc1ccc(C(=O)O)cc1	inactive
CCC(C)COC(=O)CC(C)C (configuration not stated)	inactive
OC[C@H]1O[C@@H](n2cnc3c(=S)nc[nH]c32)[C@H](O)[C@@H]1O	inactive
CCc1ccccc1	inactive
O=c1cc(-c2ccccc2)oc2cc(O)cc(O)c12	12.2 µM (active)
Cc1c(C)c2c(c(C)c1OC(=O)CCC(=O)OCCO)CC[C@@](C)(CCC[C@H](C)CCC[C@H](C)CCCC(C)C)O2	inactive
Cc1cc(O)ccc1O	61.8 µM (active)
CC[C@]1(O)C[C@H]2CN(CCc3c([nH]c4ccccc34)[C@@](C(=O)OC)(c3cc4c(cc3OC)N(C=O)[C@H]3[C@@](O)(C(=O)OC)[C@H](OC(C)=O)[C@]5(CC)C=CCN6CC[C@]43[C@@H]65)C2)C1	inactive
CN1CCCC(CC2c3ccccc3Sc3ccccc32)C1 (configuration not stated)	inactive
CCOC(=O)C1=C(C)NC(C)=C(C(=O)OC)C1c1cccc(Cl)c1Cl (configuration not stated)	1.88 µM (active)
Nc1nc2ccc([N+](=O)[O-])cc2s1	32.5 µM (active)
O=C(CCCN1CC=C(n2c(=O)[nH]c3ccccc32)CC1)c1ccc(F)cc1	inactive
COc1cc(C(=O)NCCCCCC(=O)O)cc(OC)c1OC	inactive
COc1cc(N)c(Cl)cc1C(=O)NC1CCN(CCCOc2ccc(F)cc2)CC1OC (configuration not stated)	inactive
C=Cc1ccc(S(=O)(=O)O)cc1	inactive
CCn1cc(C(=O)O)c(=O)c2cc(F)c(N3CCNCC3)cc21	inactive
O=C1c2ccccc2C(=O)C1c1ccc(Br)cc1	11.9 µM (active)
CC(C)=CCC/C(C)=C/CC/C(C)=C/CCC(=O)OC/C=C(\C)CCC=C(C)C	inactive
O=C1C(=O)c2ccccc2C(O)=C1C1CCC(c2ccc(Cl)cc2)CC1 (configuration not stated)	4.03 µM (active)
O=C(CCc1ccc(O)cc1)c1c(O)cc(O)cc1O	inactive
CCOC(=O)/C=C/C(=O)OCC	inactive
O=C1c2ccccc2C(=O)N1CCc1noc(-c2ccc(CN3CCCCCC3)s2)n1	6.29 µM (active)
